Recorded pIC50 by entry
# assay explanation: Displacement of [125I]Tyr14-NC/OFQ from human ORL1 expressed in CHO cells
# Type: cell-based
# conditions used: read-out: I50
pIC50: −log10 of the molar value.
observation type: pIC50

record smiles	observation type	value observed
c1cncc(-c2cccc(CN3CCC4(CC3)OCc3ccccc34)c2)c1	pIC50	< 6.00
c1cncc(-c2ccccc2CN2CCC3(CC2)OCc2ccccc23)c1	pIC50	< 6.00
c1ccc(-c2csc(CN3CCC4(CC3)OCc3ccccc34)n2)cc1	pIC50	< 6.00

----------
# assay explanation: Lipophilicity Log D at pH 7.4 by shake flask method
# Assay type: physicochemical
# conditions used: buffer
logD strictly less than 3 = Y. Otherwise N.

record smiles	classification
Cc1nn(-c2ccncc2)cc1CN1CCC2(CC1)OCc1ccccc12	N
CNC(=O)c1cccnc1-n1cc(CN2CCC3(CC2)OCc2ccccc23)c(C)n1	Y
Cc1nn(-c2ccccc2Cl)cc1CN1CCC2(CC1)OCc1ccccc12	N
Cc1ccnc(-n2cc(CN3CCC4(CC3)OCc3ccccc34)c(C)n2)c1	N
Cc1nn(-c2ncccc2Cl)cc1CN1CCC2(CC1)OCc1ccccc12	N
Cc1nn(-c2ncccn2)cc1CN1CCC2(CC1)OCc1ccccc12	Y
